Reported Papp at 100 µM values follow for various molecules
test: in vitro; details: PAMPA, pH 7.4
Report only the number, with the unit ×10⁻⁶ cm/s understood.

Look over these answered cases.
• COc1cccc(C2c3c(nc4n(c3=O)CCC4)Oc3ccc4ccccc4c32)c1 (stereo not drawn) = 4.6
• O=c1c2c(nc3n1CCCC3)Oc1ccc3ccccc3c1C2c1ccccc1 (stereo not drawn) = 7.2

Supply Papp at 100 µM value. Item: COc1cccc(C2c3c(nc4n(c3=O)CCCC4)Oc3ccc4ccccc4c32)c1 (stereo not drawn) 3.6

* * *

test: in vitro; assay type: cell-based; conditions: human, HepG2 cells; HepG2, 3 µM, 24 h, MTT; read-out: In vitro toxicity (% cell viability)
viability at 24 h, 3 µM listing for selected compounds.
Field format: number, assumed %, no unit text.

- COc1cccc(C2c3c(nc4n(c3=O)CCC4)Oc3ccc4ccccc4c32)c1 (stereo not shown) [3Ba]: 108

Return viability at 24 h, 3 µM for the following compound: Cc1ccc(C2c3c(nc4n(c3=O)CCCC4)Oc3ccc4ccccc4c32)cc1 (stereo not shown) [3Cb] 103

Look up and state reported viability at 24 h, 3 µM for COc1cccc(C2c3c(nc4n(c3=O)CCCC4)Oc3ccc4ccccc4c32)c1 (stereo not shown) [3Bb] 111

Look up and report measured viability at 24 h, 3 µM for this entry: O=c1c2c(nc3n1CCCC3)Oc1ccc3ccccc3c1C2c1ccccc1 (stereo not shown) [3Ab] 95.3
